Hello, the source for this data is patent US20210238281A1, in case you need it.

experimental system: T1, recombinant human MOG protein (human, UniProt Q16653 30-154, limits assumed)
T1 construct: Bought recombinant protein; also called HMOG
T1 sequence (looked up): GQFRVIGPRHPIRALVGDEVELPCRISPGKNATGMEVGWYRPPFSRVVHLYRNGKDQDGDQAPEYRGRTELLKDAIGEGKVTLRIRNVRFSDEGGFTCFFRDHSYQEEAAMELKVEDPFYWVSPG
experimental details: phage-scFv ELISA on coated recombinant human MOG (0.5 µg/well), anti-M13 HRP, OD450 over BSA background
ratio OD on target/OD bdf values for the binders below.
Give just the numeric value; ratio need not be written.

Field: example entries. Status: answers known.
binder: anti-MOG MO4B-43 antibody (scFv, V domains shown) VH: DEVQLLESGGGLVPGGSLRLSCEVSGFSFSNHAMHWVRQAPGKALEHLSVLGSDGRSTYYADSVKGRFTISRDISKTTVYLQMGSLRPGDMGVYYCARGLYGDHWDASDLWGQGTMVTVSS VL: EIVMTQSPATLSVSPAERVILSCRASQSVGNNVAWFQQKPGQAPRLLIHGASSRATGIPTRFSGSGSGTELTLTISSLQSEDFAVYYCQQYGSAPITFGQGTRLEIK
ratio OD on target/OD bdf, ratio: 5.82

binder: anti-MOG MO4B-42 antibody (scFv, V domains shown) VH: MAGSLQVDQVQLVQSGAEVKRPGESLKISCEGSGYSFTSSWIGWVRQMPGKGLECMGIIYPGDSDTRYSPSFQGHVTISADKSISTAYLQWSSLRASDTAMYYCARAYHSDYGFDFWGQGTLVTVSS VL: EIVLTQPLSVSESPGKTVTISCTRSSGSIANNFVQWYQRRPGSSPTTVIYENDQRPSGVPDRFSGSIDSSSNSASLTITGLETQDEADYYCQSFNDDVGGGNSGGGTK
ratio OD on target/OD bdf, ratio: 6.11

From here, focus on the item given below.
Query: Using the record for anti-MOG MO3J-19 antibody (scFv, V domains shown) VH: EVQLVQSGAEVKKPGASVKVSCKASGYTFTSYGISWVRQAPGQGLEWMGWISAYNGNTNYAQKLQGRVTMTTDTSTSTAYMELRSLRSDDTAVYYCARNMGCSSTSCFVSWFDPWGQGTLVTVSS VL: QSVLTQPPSASGTPGQRVTISCSGSTSNIGSQIVNWYQQLPGTAPRLIIYNDNERPSGVSDRFSGSKSDTSASLAISGLQSEDEADYYCAAWDDSLNGYVFGTGTKVTVL , report its ratio OD on target/OD bdf.
Result: 11.7
